Experimental target: Falcipain-3 (Plasmodium falciparum, UniProt Q8IIL0)
Sequence (Q8IIL0 243-492): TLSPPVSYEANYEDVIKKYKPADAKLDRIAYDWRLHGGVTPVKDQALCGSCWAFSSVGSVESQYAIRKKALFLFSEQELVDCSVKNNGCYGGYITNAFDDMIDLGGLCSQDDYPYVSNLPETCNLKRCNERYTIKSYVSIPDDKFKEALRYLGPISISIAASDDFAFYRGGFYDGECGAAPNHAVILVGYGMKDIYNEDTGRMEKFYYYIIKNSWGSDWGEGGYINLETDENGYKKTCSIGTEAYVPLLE
Experimental protocol: Falcipain-3 enzymatic assay (assay 1)
Format: biochemical
pIC50: −log10 of the molar value. Where a name gives a salt, the structure may show the parent alone.
Each item that follows carries a reported pIC50.

Sample records with pIC50:
| Compound | pIC50 |
| --- | --- |
| CN(Cc1ccc(C(=O)NN(c2nc(C#N)ncc2Cl)C2CCCC2)cc1)C(C)(C)Cc1ccccc1 [Example 71, trifluoroacetate] | 7.82 to 8.60 |
| CC(=O)N1CCC(N(NC(=O)c2ccc(CN3CCC(C(=O)N4CCN(C)CC4)CC3)cc2)c2nc(C#N)ncc2Br)CC1 [Example 49, trifluoroacetate] | 6.82 to 7.82 |

Query: Falcipain-3 (Plasmodium falciparum, UniProt Q8IIL0) / pIC50 / CN1CCN(C2CCN(Cc3cccc(C(=O)NN(c4nc(C#N)ncc4Br)C4CCCC4)c3)CC2)CC1 [Example 11, trifluoroacetate] : value?
Response: 7.82 to 8.60

Query: Now this one: CC1CCC(N(NC(=O)c2ccc(CN3CCC(N4CCN(C)CC4)CC3)cc2)c2nc(C#N)ncc2Br)C1 (mixture of isomers) [Example 4, trifluoroacetate]
Response: 8.60 to 9.00

Query: Same thing, different compound: CN(Cc1ccc(C(=O)NN(c2nc(C#N)ncc2Cl)C2CCCC2)cc1)C(C)(C)C [Example 73, trifluoroacetate]
Response: 7.82 to 8.60

Query: Quick one: CN1CCN(Cc2ccc(C(=O)NN(c3nc(C#N)ncc3Cl)C3CCCC3)cc2)CC1 [Example 50, trifluoroacetate]
Response: 6.82 to 7.82

Query: Repeat with CN1CCN(c2ccc(C(=O)NN(c3nc(C#N)ncc3Cl)C3CCCC3)cc2)CC1 [Example 52, trifluoroacetate]
Response: 7.82 to 8.60

Query: And what about the compound CN(CC(=O)N(C)C)Cc1ccc(C(=O)NN(c2nc(C#N)ncc2Cl)C2CCCC2)cc1 [Example 60, trifluoroacetate] ?
Response: 7.82 to 8.60

Query: Then this compound: N#Cc1ncc(Br)c(N(NC(=O)c2cccc(CN3CCC(N4CCOCC4)CC3)c2)C2CCCC2)n1 [Example 13, trifluoroacetate]
Response: 7.82 to 8.60

Query: Repeat with CN1CCC(CN2CCN(Cc3ccc(C(=O)NN(c4nc(C#N)ncc4Br)C4CCOCC4)cc3)CC2)CC1 [Example 30, trifluoroacetate]
Response: 7.82 to 8.60

Query: Continue with CC(C)N(CCN(C(=O)OC(C)(C)C)C(C)C)Cc1ccc(C(=O)NN(c2nc(C#N)ncc2Cl)C2CCCC2)cc1 [Example 85, trifluoroacetate]
Response: 7.82 to 8.60

Query: Query CN(CCc1ccccc1)Cc1ccc(C(=O)NN(c2nc(C#N)ncc2Cl)C2CCCC2)cc1 [Example 62, trifluoroacetate] next
Response: 7.82 to 8.60

Query: Similarly, CN1CCN(c2cccc(C(=O)NN(c3nc(C#N)ncc3Cl)C3CCCC3)n2)CC1 [Example 78, trifluoroacetate] ?
Response: 6.82 to 7.82

###

Experimental target: Falcipain-3 (Plasmodium falciparum)
Experimental protocol: Falcipain-3 enzymatic assay (assay 1)
Type: biochemical
pIC50: −log10 of the molar value. Counter-ions that a name gives are not always drawn.
Measured property: pIC50

| Molecule | pIC50 |
| --- | --- |
| CN(Cc1ccc(C(=O)NN(c2nc(C#N)ncc2Cl)C2CCCC2)cc1)C1CCC2(CC1)OCC(C)(C)CO2 [Example 65, trifluoroacetate] | 7.82 to 8.60 |
| CN1CCN(Cc2ccc(C(=O)NN(c3nc(C#N)ncc3Cl)C3CCCCC3)cc2)CC1 [Example 51, trifluoroacetate] | 6.82 to 7.82 |

Now examine the next entry.
Query: # get_value(readout='pIC50', item= CN1CCN(C(=O)C2CCN(Cc3cccc(C(=O)NN(c4nc(C#N)ncc4Br)C4CCCC4)c3)CC2)CC1 [Example 12, trifluoroacetate] )
Response: 7.82 to 8.60
